experiment: LD50 determination, oral administration; settings: mouse, in vivo
test_readout: LD50

Query string: Quick one: LD50 for O=c1c2ccccc2[se]n1-c1ccccc1 [Compound A, 2-phenyl-1,2-benzisoselenazol-3(2H)-one] ?
Result string: ≥ 6810 mg/kg

====

assay: LD50 determination, intraperitoneal administration; conditions: mouse, in vivo, ip
test_readout: LD50 (mg/kg)
Give bare numbers, in mg/kg.

Query string: Which LD50 is listed for `O=c1c2ccccc2[se]n1-c1ccccc1` ?
Result string: 740
